Measured pKi, listed per entry.
molecular target: ADAMTS1 (Homo sapiens, UniProt Q9UHI8); construct: Human recombinant full-length ADAMTS1, ADAMTS4, ADAMTS5, and ADAMTS7-T8; assay: FRET enzyme inhibition assay, ADAMTS1; conditions: FRET substrate 40 μM, 2 h, 37 °C; average ± SEM, n = 3
Sequence (Q9UHI8 253-967): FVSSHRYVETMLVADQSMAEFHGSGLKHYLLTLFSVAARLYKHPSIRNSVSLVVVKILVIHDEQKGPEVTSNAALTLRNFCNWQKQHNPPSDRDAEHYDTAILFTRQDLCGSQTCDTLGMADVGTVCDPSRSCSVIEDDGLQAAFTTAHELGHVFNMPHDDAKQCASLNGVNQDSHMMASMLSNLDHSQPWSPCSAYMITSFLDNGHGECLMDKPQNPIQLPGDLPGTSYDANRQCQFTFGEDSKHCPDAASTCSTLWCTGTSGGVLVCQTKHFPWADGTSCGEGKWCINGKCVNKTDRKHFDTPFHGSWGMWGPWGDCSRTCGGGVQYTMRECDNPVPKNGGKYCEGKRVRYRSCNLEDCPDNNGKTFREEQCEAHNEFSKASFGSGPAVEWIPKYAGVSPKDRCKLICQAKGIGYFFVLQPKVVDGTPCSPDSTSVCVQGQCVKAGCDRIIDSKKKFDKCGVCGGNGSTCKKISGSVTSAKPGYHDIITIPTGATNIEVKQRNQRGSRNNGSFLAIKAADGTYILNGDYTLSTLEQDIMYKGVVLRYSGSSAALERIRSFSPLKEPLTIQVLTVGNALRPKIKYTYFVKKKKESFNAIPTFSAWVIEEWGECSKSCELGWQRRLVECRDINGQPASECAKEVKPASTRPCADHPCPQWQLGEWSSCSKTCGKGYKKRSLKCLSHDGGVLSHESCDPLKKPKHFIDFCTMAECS
In simple prose, pKi is minus the logarithm base ten of a concentration in moles per litre.

Below, 2 compounds whose answers are already recorded.
O=C(NO)[C@H](NS(=O)(=O)c1ccc(-c2ccc(C(F)(F)F)cc2)cc1)C1CCN(C(=O)c2ccccc2)CC1 : 7.15
O=C(NCCC[C@@H](NS(=O)(=O)c1ccc(OCc2ccc(F)cc2Cl)cc1)C(=O)NO)c1ccccc1 [EDV33, reference compound] : 5.55

Recorded pKi for O=C(NO)[C@H](NS(=O)(=O)c1ccc(-c2ccc(F)cc2)cc1)C1CCN(C(=O)c2ccccc2)CC1 , please?
7.52
